Exercise: for every item that follows, state its recorded IC50.
study system: Ubiquitin-conjugating enzyme E2 N (Homo sapiens, UniProt P61088)
Sequence (P61088 whole entry): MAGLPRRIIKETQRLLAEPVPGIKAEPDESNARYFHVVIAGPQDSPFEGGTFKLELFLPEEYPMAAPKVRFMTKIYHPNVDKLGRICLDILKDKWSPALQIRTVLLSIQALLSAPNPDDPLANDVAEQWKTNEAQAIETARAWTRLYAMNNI
Type: functional
Calls of active or inactive are those of the source.

CCCCCCCCCCCCCCC[C@@H](O)[C@@H](N)CO [DIHYDROSPINGOSINE] = 13.4 µM (active)
Cc1ccc(-c2oc3ncnc(N)c3c2-c2ccc(C)cc2)cc1 = 4.6 µM (active)

Working through the 4 compounds below one at a time, give IC50 for each.
1. CCCCCCOc1ccc(/C(C)=N/NC2=NCCN2)cc1[N+](=O)[O-]
2. CC(C)c1ccc(OCC(=O)NNC(=S)NC(=O)C2CC2)cc1
3. CN(C)C/C=C/C(=O)Nc1cccc(-c2c[nH]c3ncnc(Oc4ccc(NC(=O)CC(=O)Nc5ccc(F)cc5)cc4F)c23)c1
4. Cn1c(=O)c2c(ncn2Cc2cccc(Cl)c2)n(C)c1=O

Return:
12.1 µM (active)
6.97 µM (active)
2.28 µM (active)
11.2 µM (active)
